Where these numbers come from: patent US6153591A

Biological target: caspase-3 (CPP32) (Homo sapiens, UniProt P42574)
Sequence (P42574 29-175 limits assumed): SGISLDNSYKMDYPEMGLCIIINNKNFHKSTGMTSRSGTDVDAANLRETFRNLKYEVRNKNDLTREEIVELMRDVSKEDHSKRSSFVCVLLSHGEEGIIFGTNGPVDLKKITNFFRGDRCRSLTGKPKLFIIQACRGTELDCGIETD
Sequence (P42574 176-277 limits assumed): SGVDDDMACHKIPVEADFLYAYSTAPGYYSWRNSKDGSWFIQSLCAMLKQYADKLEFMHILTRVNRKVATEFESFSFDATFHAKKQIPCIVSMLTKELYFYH
Assay: Fluorometric enzyme assay of caspase-3 inhibition
Conditions: recombinant caspase-3, substrate Asp-Glu-Val-Asp-AMC 5 μM, 30° C., 30 minutes
pIC50: −log10 of the molar value.
observationType: pIC50

molecule: CC(C)(F)[C@H](NC(=O)OCc1ccccc1)C(=O)N[C@@H](CC(=O)O)C(=O)CF [Z-(3-F-Val)--Asp--fmk, Z-(3-F-Val)-Asp-fmk]
pIC50: 6.36

molecule: O=C(O)CC(NC(=O)C(NC(=O)OCc1ccccc1)c1ccsc1)C(=O)CF (stereo not drawn) [Z-(3-Thg)--Asp--fmk, Z-(3-Thg)-Asp-fmk]
pIC50: 6.47

I: O=C(O)CC(NC(=O)C(NC(=O)OCc1ccccc1)c1ccc(F)cc1)C(=O)CF (stereo not drawn) [Z-(4-F-Phg)--Asp--fmk, Z-(4-F-Phg)-Asp-fmk]
II: O=C(O)C[C@H](NC(=O)CC(NC(=O)OCc1ccccc1)c1ccccc1)C(=O)CF (stereo partly drawn) [Z-(3-Ph-- --Ala)--Asp--fmk, Z-(3-Ph-β-Ala)-Asp-fmk]
III: O=C(O)CC(NC(=O)C(NC(=O)OCc1ccccc1)c1ccccc1F)C(=O)CF (stereo not drawn) [Z-(2-F--Phg)--Asp--fmk, Z-(2-F-Phg)-Asp-fmk]
IV: CN(C)CC(NC(=O)OCc1ccccc1)C(=O)NC(CC(=O)O)C(=O)CF (stereo not drawn) [Z-(3-Me2 N--Ala]--Asp--fmk, Z-(3-Me2 N-Ala)-Asp-fmk]
Task item: Sort the 4 molecules by pIC50; largest first, smallest last. Rank them, then answer with their labels in that order.
Reply: III, I, II, IV
